Taken from the supplement of paper PMC13380429.

Test system: Vero E6 infected with SARS-CoV-2
Assay: inhibition of SARS-CoV-2 cytopathic effect; higher = more antiviral protection, active = above 15
Conditions: 100 nM; 48 h
Entries and their inhibition of SARS-CoV-2 cytopathic effect values follow.
parameterMeasured: inhibition of SARS-CoV-2 cytopathic effect (%)

compound	reportedMeasurement
C[C@H]1COC2=C1C(=O)C(=O)c1c2ccc2c1CCCC2(C)C [cryptotanshinone]	2.85
CC(C)(C)Nc1nc(Nc2ccc(C(N)=O)cc2)cc(N)c1C#N	-0.39
CCn1cnc2c(Nc3cccc(Cl)c3)nc(N[C@@H]3CCCC[C@@H]3N)nc21	2.67
CC(=O)c1ccc2c(c1)N(CCCN(C)C)c1ccccc1S2 [acepromazine]	-2.17
CCCc1nc(C)c2c(=O)nc(-c3cc(S(=O)(=O)N4CCN(CC)CC4)ccc3OCC)[nH]n12 [vardenafil]	0.46
Cc1ccc(C(=O)Nc2ccc(CN3CCN(C)CC3)c(C(F)(F)F)c2)cc1C#Cc1cnc2[nH]ncc2c1	4.44
O=C1C(Cl)=C(NCCN2CCOCC2)C(=O)c2ncccc21	1.71
O=C1C[C@@H](c2ccc(O)cc2)Oc2cc(O)cc(O)c21 [naringenin]	-0.05
C[C@H](NC(=O)Cc1cc(F)cc(F)c1)C(=O)N[C@@H]1C(=O)N(C)c2ccccc2-c2ccccc21	-6.27
COc1cc2c(c(OC)c1OC)-c1c(cc3c(c1OC)OCO3)CC(C)C(C)C2 (centres undefined) [schisandrin-B]	-0.03
COc1ccc2[nH]c(-c3ccccc3)c(CCNC(C)=O)c2c1 [2-phenylmelatonin]	0.56
CCCCCCCCCCCCCCCC(=O)OC(C)C [isopropyl-palmitate]	0.66
NC1(Cc2ccc(Cl)cc2)CCN(c2ncnc3[nH]ccc23)CC1	-0.65
Nc1nc2c(ncn2[C@@H]2O[C@H](CO)[C@@H](O)[C@H]2O)c(=O)[nH]1 [guanosine]	-0.7
NC(=O)N/N=C/c1ccc(Oc2ccc(F)cc2)cc1	-0.81
C[C@H](NC[C@H](O)CP(=O)(O)Cc1ccccc1)c1ccc(Cl)c(Cl)c1	1.35
COc1cc2c(NC3CCN(C(C)C)CC3)nc(N3CCC(F)(F)CC3)nc2cc1OCCCN1CCCC1	3.08
Cc1c(C(N)=O)cc([N+](=O)[O-])cc1[N+](=O)[O-] [dinitolmide]	1.29
C1=N/C2=N/c3ccc(OCCN4CCCC4)c(c3)COC/C=C/COCc3cccc(c3)C(=C1)N2 [pacritinib]	0.95
